- System: KM-H2 (Hodgkin's Lymphoma)
- measurement-protocol: combination Emax (second highest fraction inhibited in the dose matrix, 72 h); higher = more inhibition; extreme values may be limits of the assay
# combination Emax listing for each entry below
Give the figure only, with no unit attached.

Here's what some known entries look like.
# molecule, target, combination Emax
measured = [
    ("CN(CCO)CC[C@H](CSc1ccccc1)Nc1ccc(S(=O)(=O)NC(=O)c2ccc(N3CCC([C@@H](O)c4ccccc4-c4ccc(Cl)cc4)CC3)cc2)cc1S(=O)(=O)C(F)(F)F [AZD4320] + C1CN(CCC1(C(=O)N[C@@H](CCO)C2=CC=C(C=C2)Cl)N)C3=NC=NC4=C3C=CN4 [Capivasertib] (first compound max 1 µM, 7x7, partner max 3 µM)", "KM-H2 (Hodgkin's Lymphoma)", 0.0543),
    ("Cc1c2c(nn1C)CSCc1cc(n(C)n1)CSc1cc(c3ccccc3c1)OCCCc1c(C(=O)O)n(C)c3c-2c(Cl)ccc13 [AZD5991] + Cn1cnc2c(F)c(Nc3ccc(Br)cc3Cl)c(C(=O)NOCCO)cc21 [Selumetinib] (first compound max 1 µM, 7x7, partner max 3 µM)", "KM-H2 (Hodgkin's Lymphoma)", 0.191),
]

Field: next molecule
Q. For the molecule CC1(C)CCC(CN2CCN(c3ccc(C(=O)NS(=O)(=O)c4ccc(NCC5CCOCC5)c([N+](=O)[O-])c4)c(Oc4cnc5[nH]ccc5c4)c3)CC2)=C(c2ccc(Cl)cc2)C1 [Venetoclax] + CCN(CCO)CCCOc1ccc2c(Nc3cc(CC(=O)Nc4cccc(F)c4)[nH]n3)ncnc2c1 [AZD2811] (first compound max 1 µM, 7x7, partner max 1 µM) , what combination Emax is on record?
A. 0.305
